biological target: human recombinant HDAC6 (Homo sapiens, UniProt Q9UBN7); experiment: HDAC6 enzyme activity inhibition assay (HDAC Fluorimetric Drug Discovery Kit); conditions: same protocol as the HDAC1 enzyme activity test
Sequence (Q9UBN7 whole entry): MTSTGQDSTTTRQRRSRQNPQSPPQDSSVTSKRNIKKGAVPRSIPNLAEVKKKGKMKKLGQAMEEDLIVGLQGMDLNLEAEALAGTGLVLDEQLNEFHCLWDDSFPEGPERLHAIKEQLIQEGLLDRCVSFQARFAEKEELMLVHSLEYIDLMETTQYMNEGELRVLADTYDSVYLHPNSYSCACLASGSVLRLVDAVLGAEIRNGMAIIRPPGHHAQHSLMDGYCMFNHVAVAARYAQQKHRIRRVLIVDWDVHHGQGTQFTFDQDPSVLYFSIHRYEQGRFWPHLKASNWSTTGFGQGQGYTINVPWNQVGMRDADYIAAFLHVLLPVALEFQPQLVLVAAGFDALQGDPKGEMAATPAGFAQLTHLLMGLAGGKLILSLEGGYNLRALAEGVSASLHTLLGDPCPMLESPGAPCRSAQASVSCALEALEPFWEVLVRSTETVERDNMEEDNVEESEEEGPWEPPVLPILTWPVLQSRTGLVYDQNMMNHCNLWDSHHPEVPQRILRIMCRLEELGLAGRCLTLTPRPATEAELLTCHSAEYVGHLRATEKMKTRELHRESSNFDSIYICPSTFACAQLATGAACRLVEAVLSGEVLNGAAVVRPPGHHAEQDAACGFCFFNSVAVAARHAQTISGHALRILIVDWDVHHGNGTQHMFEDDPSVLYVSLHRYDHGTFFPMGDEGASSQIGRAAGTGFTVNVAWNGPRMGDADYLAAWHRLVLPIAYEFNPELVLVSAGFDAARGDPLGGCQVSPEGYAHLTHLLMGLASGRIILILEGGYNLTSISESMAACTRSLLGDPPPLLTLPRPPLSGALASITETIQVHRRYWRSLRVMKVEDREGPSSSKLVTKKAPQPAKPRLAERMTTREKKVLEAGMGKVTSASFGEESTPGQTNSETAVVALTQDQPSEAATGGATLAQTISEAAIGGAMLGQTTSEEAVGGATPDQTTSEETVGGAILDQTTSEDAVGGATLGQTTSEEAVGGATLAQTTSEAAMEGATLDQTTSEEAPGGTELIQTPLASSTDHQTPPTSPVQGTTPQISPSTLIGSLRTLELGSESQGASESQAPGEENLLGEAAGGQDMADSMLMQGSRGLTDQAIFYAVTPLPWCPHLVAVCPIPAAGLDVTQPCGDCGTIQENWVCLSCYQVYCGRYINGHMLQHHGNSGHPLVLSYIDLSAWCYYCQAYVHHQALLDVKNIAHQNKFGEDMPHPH
# strict inequality: IC50 < 70 nM yields Criterion met, everything else yields Criterion not met

- O=S(=O)(C1CCN([C@H]2CC[C@H](F)CC2)CC1)N(Cc1ccc(-c2nnc(C(F)F)o2)cc1)c1cccc(Cl)c1 [Compound 11725]: Criterion not met
- O=S(=O)(CCN1CCC(F)(F)C1)N(Cc1ccc(-c2nnc(C(F)F)o2)cc1)c1ccccc1 [Compound 11815]: Criterion not met
- O=S(=O)(CCCN1CCCC1)N(Cc1ccc(-c2nnc(C(F)F)o2)cc1)c1ccccc1 [Compound 11647]: Criterion met
- O=S(=O)(CCCN1CCOCC1)N(Cc1ccc(-c2nnc(C(F)F)o2)cc1F)c1ccccc1 [Compound 11588]: Criterion met
- O=S(=O)(C1CCN(C2COC2)CC1)N(Cc1ccc(-c2nnc(C(F)F)o2)cn1)c1cccc(Cl)c1 [Compound 11683]: Criterion met
- CC(C)N1Cc2ccc(N(Cc3ccc(-c4nnc(C(F)F)o4)cn3)S(C)(=O)=O)cc2C1 [Compound 11734]: Criterion not met
- O=S(=O)(c1cccnc1)N(Cc1ccc(-c2nnc(C(F)F)o2)cc1)c1cccc(F)c1 [Compound 11156]: Criterion met
- CC(C)n1ncc2ccc(N(Cc3ccc(-c4nnc(C(F)F)o4)cc3)S(C)(=O)=O)cc21 [Compound 11742]: Criterion not met
- O=S(=O)(CCN1CC(F)(F)C1)N(Cc1ccc(-c2nnc(C(F)F)o2)cc1)c1ccccc1 [Compound 11821]: Criterion not met
- COCC(C)N1CCC(S(=O)(=O)N(Cc2ccc(-c3nnc(C(F)F)o3)cn2)c2ccccc2)CC1 (stereo not drawn) [Compound 11790]: Criterion met
- CC(=O)N1Cc2ccc(N(Cc3ccc(-c4nnc(C(F)F)o4)cc3)S(C)(=O)=O)cc2C1 [Compound 11732]: Criterion not met
- CS(=O)(=O)N(Cc1ccc(-c2nnc(C(F)(F)F)o2)cc1F)c1ccc(Cl)cc1 [Compound 11271]: Criterion not met
- CS(=O)(=O)N1CCN(CCS(=O)(=O)N(Cc2ccc(-c3nnc(C(F)F)o3)cc2F)c2ccc(F)c(Cl)c2)CC1 [Compound 11554]: Criterion met
- O=S(=O)(c1cccnc1)N(Cc1ccc(-c2nnc(C(F)(F)F)o2)cc1)c1cccc(F)c1 [Compound 11155]: Criterion not met
- CC(=O)N1CC(N2CCC(S(=O)(=O)N(Cc3ccc(-c4nnc(C(F)F)o4)cc3)c3cccc(Cl)c3)CC2)C1 [Compound 11779]: Criterion met
- CS(=O)(=O)N(Cc1ccc(-c2nnc(C(F)F)o2)cc1)c1ncco1 [Compound 11741]: Criterion not met
- Cc1nccn1CCS(=O)(=O)N(Cc1ccc(-c2nnc(C(F)F)o2)cc1)c1ccccc1 [Compound 11806]: Criterion met
- CCS(=O)(=O)N(Cc1ccc(-c2nnc(C(F)F)o2)cn1)c1ccc2cnn(C)c2c1 [Compound 11540]: Criterion met
- NC(=O)[C@@H]1CCCN1CCS(=O)(=O)N(Cc1ccc(-c2nnc(C(F)F)o2)cn1)c1ccccc1 [Compound 11847]: Criterion met
- O=S(=O)(CCN1CCCC(CO)C1)N(Cc1ccc(-c2nnc(C(F)F)o2)cc1)c1ccccc1 (stereo not drawn) [Compound 11811]: Criterion met
- O=S(=O)(CCN1CCCC(O)C1)N(Cc1ccc(-c2nnc(C(F)F)o2)cc1)c1ccccc1 (stereo not drawn) [Compound 11700]: Criterion not met
- O=S1(=O)CCC(S(=O)(=O)N(Cc2ccc(-c3nnc(C(F)F)o3)cc2F)c2cccc(F)c2)CC1 [Compound 11256]: Criterion met
- CCS(=O)(=O)N(Cc1ccc(-c2nnc(C(F)F)o2)cn1)c1cc(C)cc(Cl)c1 [Compound 11508]: Criterion met
- COCCN1CCN(CCS(=O)(=O)N(Cc2ccc(-c3nnc(C(F)F)o3)cc2)c2ccccc2)CC1 [Compound 11758]: Criterion not met
- O=S(=O)(CCN1CC[C@H](CO)C1)N(Cc1ccc(-c2nnc(C(F)F)o2)cc1)c1ccccc1 [Compound 11804]: Criterion met
